For each record, write down the corresponding IC50.
Target: human IBAT (Homo sapiens)
Construct: Bases 599 to 1645 correspond to the complete coding region of human IBAT; pcDNA1 vector
Sequence (Q12908 whole entry): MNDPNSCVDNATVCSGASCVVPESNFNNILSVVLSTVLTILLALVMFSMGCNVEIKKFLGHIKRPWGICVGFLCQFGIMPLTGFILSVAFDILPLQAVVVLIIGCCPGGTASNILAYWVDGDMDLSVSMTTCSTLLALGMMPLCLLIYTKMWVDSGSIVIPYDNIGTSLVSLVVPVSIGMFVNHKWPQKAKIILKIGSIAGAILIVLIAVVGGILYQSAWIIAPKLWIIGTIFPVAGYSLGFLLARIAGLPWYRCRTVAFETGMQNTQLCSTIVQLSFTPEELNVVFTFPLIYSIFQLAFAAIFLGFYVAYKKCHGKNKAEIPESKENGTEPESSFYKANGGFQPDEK
Assay: in vitro IBAT inhibition assay: IBAT-dependent uptake of [3H]-taurocholic acid into CHO-hIBAT cells
Details: 10 μM taurocholic acid, 60 min at room temperature, read-out: IC-50 (human IBAT)
Report only the number, with the unit nM understood.

[ask] // returns reported IC50 for input CCCCC1(CCCC)CS(=O)(=O)c2ccc(N(C)C)cc2[C@@H](c2cccc(NC(=O)N[C@@H]3O[C@H](CO)[C@@H](O)[C@H](O)[C@H]3O)c2)[C@H]1O
[reply] 6

[ask] Another compound: CCCC[C@]1(CC)CS(=O)(=O)c2ccc(N(C)C)cc2[C@@H](c2cccc(NC(=O)N[C@@H]3O[C@H](CO)[C@@H](O)[C@H](O)[C@H]3O)c2)[C@H]1O
[reply] 2.5
